// data source = patent US11366121B2

# target-desc: GIV:Gαi3 interaction (Homo sapiens)
# Sequence (P08754 whole entry): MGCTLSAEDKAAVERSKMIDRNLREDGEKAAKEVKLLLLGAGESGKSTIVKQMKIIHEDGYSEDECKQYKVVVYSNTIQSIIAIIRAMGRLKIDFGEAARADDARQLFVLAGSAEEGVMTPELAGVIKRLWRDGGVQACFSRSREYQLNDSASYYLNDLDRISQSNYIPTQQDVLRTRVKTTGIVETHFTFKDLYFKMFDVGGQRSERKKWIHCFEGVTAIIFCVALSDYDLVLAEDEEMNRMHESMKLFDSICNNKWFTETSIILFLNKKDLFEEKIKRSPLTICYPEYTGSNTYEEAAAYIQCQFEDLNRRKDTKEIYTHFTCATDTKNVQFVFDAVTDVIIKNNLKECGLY
# test-method-notes: fluorescence polarization (FP) assay monitoring the GIV:Gαi3 interaction, dose response curves
# assay-context: FIG. 11D
pIC50: −log10 of the molar value.
quantity: pIC50

Give pIC50 (GIV:Gαi3 interaction (Homo sapiens)) of the following compound: Cc1ccc(C(=O)Nc2ccc(S(=O)(=O)O)c3cc(S(=O)(=O)O)cc(S(=O)(=O)O)c23)cc1NC(=O)c1cccc(NC(=O)Nc2cccc(C(=O)Nc3cc(C(=O)Nc4ccc(S(=O)(=O)O)c5cc(S(=O)(=O)O)cc(S(=O)(=O)O)c45)ccc3C)c2)c1 [suramin] ~3.09

GET /values?readout=pIC50&system=GIV:Gαi3 interaction (Homo sapiens)&item= O=C(O)C1=CC(=C(c2ccc(O)c(C(=O)O)c2)c2ccc(O)c(C(=O)O)c2)C=CC1=O [ATA, aurintricarboxylic acid] ~5.30

Param readout= pIC50; system= GIV:Gαi3 interaction (Homo sapiens); entry= O=C(Nc1cccc(C(=O)Nc2ccc(S(=O)(=O)[O-])c3cc(S(=O)(=O)[O-])cc(S(=O)(=O)[O-])c23)c1)Nc1cccc(C(=O)Nc2ccc(S(=O)(=O)[O-])c3cc(S(=O)(=O)[O-])cc(S(=O)(=O)[O-])c23)c1.[Na+].[Na+].[Na+].[Na+].[Na+].[Na+] [NF023] ; returns value. ~5.30
